target: Opiate μ(OP3, MOP) (Homo sapiens, UniProt P35372)
Sequence (P35372 whole entry): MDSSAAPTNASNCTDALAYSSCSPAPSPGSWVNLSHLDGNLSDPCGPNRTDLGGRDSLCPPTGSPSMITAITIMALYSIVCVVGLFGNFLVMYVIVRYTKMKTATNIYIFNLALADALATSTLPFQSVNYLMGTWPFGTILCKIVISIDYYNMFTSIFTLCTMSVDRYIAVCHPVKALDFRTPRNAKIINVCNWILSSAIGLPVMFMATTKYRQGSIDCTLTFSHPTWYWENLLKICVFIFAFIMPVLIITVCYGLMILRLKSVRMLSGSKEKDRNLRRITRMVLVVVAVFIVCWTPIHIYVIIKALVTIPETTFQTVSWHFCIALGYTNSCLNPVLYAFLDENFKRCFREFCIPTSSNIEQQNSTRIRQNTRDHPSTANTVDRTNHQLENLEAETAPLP
Property: pKi
For clarity, pKi is expressed as the negative log10 of concentration in mol/L.

Fill in the recorded pKi for this compound, with Opiate μ(OP3, MOP) (Homo sapiens, UniProt P35372) as test system: `C[C@]12CC=C3C=C4CC[C@@H](O)C[C@]45CC[C@]3(O5)[C@@H]1CC[C@@H]2c1ccc2ccncc2c1` 5.63

====

target: Tachykinin NK1 (Homo sapiens); construct: Eurofins Panlabs; assay: Panlab assay, Tachykinin NK1; type: binding; details: Cheng and Prusoff
Sequence (P25103 whole entry): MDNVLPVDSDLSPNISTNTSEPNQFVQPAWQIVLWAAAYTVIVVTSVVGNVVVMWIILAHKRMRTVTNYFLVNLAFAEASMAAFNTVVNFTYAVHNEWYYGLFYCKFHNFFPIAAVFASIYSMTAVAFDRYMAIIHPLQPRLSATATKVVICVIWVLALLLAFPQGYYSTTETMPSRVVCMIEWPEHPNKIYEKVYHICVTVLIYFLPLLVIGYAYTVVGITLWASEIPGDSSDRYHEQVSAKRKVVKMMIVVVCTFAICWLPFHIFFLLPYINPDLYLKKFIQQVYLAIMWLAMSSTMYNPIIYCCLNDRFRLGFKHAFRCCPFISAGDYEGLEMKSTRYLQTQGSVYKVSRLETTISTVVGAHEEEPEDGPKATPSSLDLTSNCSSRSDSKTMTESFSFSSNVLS
Property: pKi
For clarity, pKi is expressed as the negative log10 of concentration in mol/L.

# input molecule: C[C@]12CC=C3C=C4CC[C@@H](O)C[C@]45CC[C@]3(O5)[C@@H]1CC[C@@H]2c1ccc2ccncc2c1 [Compound A] ; wanted: its pKi 5.37

Reference for the values: patent US20180298024A1
